Catalogue of compounds with associated t1/2
# measurement-description: Metabolic stability in human liver microsomes
# condition-label: human liver microsomes, 3 μM
# Experimental: The human liver microsome-mediated biotransformation of PEG-PI compounds was determined by monitoring the loss of the substrate as a function of time. […] Test compounds (3 μM final concentration) were preincubated with pooled (male and female) human liver microsomes (0.5 mg/mL final protein concentration) in buffer (0.1M phosphate buffer, pH 7.4) at 37° C. […] Sample supernatants are analyzed by liquid chromatography-tandem mass spectrometry.
A number alone suffices; assume min.

Example entries and their recorded answers appear below.
- compound: "COCCOCCOCCOCCOCCOC(=O)NC(C(=O)NC(Cc1ccccc1)C(O)CN(Cc1ccc(-c2ccccn2)cc1)NC(=O)C(NC(=O)OC)C(C)(C)C)C(C)(C)C (stereo not drawn)"
  units: "min"
  t1/2: 12.9
- compound: "COCCOCCOCCOC(=O)N[C@@H](C(=O)NC(Cc1ccccc1)[C@@H](O)CN(Cc1ccc(-c2ccccn2)cc1)NC(=O)[C@H](NC(=O)OCCOCCOCCOC)C(C)(C)C)C(C)(C)C (stereo partly drawn)"
  units: "min"
  t1/2: 7.31
- compound: "COCCOC(=O)NC(C(=O)NC(Cc1ccccc1)C(O)CN(Cc1ccc(-c2ccccn2)cc1)NC(=O)C(NC(=O)OC)C(C)(C)C)C(C)(C)C (stereo not drawn)"
  units: "min"
  t1/2: 7.65

query: For the compound shown here, COCCOCCOCCOCCOCCOCCOCCOC(=O)NC(C(=O)NC(Cc1ccccc1)C(O)CN(Cc1ccc(-c2ccccn2)cc1)NC(=O)C(NC(=O)OC)C(C)(C)C)C(C)(C)C (stereo not drawn) , give the reported t1/2.
result: 19.5

###

# Tested on: PBMCs
# measurement-description: PBMC macromolecule synthesis (tritiated precursor incorporation)
# Assay type: cell-based, human
# condition-label: RNA synthesis
metric: Uridine Incorporation (PBMC) TC50 (µM)
A number alone suffices; assume µM.

Example entries and their recorded answers appear below.
- compound: "COCCOCCOCCOCCOCCNc1ccc(S(=O)(=O)N(CC(C)C)CC(O)[C@H](Cc2ccccc2)NC(=O)O[C@H]2CO[C@H]3OCC[C@H]32)cc1 (stereo partly shown)"
  target-of-assay: "PBMCs"
  units: "µM"
  Uridine Incorporation (PBMC) TC50: 73.2
- compound: "COCCOCCOCCOc1ccc(C[C@H](NC(=O)O[C@H]2CO[C@H]3OCC[C@H]32)C(O)CN(CC(C)C)S(=O)(=O)c2ccc(N)cc2)cc1 (stereo partly shown)"
  target-of-assay: "PBMCs"
  units: "µM"
  Uridine Incorporation (PBMC) TC50: 139.4
- compound: "CC(C)CN(C[C@@H](O)[C@H](Cc1ccccc1)NC(=O)O[C@H]1CO[C@H]2OCC[C@H]21)S(=O)(=O)c1ccc(N)cc1 [Darunavir, reference compound]"
  target-of-assay: "PBMCs"
  units: "µM"
  Uridine Incorporation (PBMC) TC50: 189.3
- compound: "COCCOCCOCCOC(=O)NC(C(=O)NC(Cc1ccccc1)C(O)CN(Cc1ccc(-c2ccccn2)cc1)NC(=O)C(NC(=O)OC)C(C)(C)C)C(C)(C)C (stereo not shown)"
  target-of-assay: "PBMCs"
  units: "µM"
  Uridine Incorporation (PBMC) TC50: 27.7

Could you now consider this next compound?
query: For the compound shown here, COC(=O)N[C@H](C(=O)N[C@@H](Cc1ccccc1)[C@@H](O)CN(Cc1ccc(-c2ccccn2)cc1)NC(=O)[C@@H](NC(=O)OC)C(C)(C)C)C(C)(C)C [Atazanavir, reference compound] , give the reported Uridine Incorporation (PBMC) TC50.
result: 87.2

###

Catalogue of compounds with associated half-life at 0.1 μM
# measurement-description: Metabolic stability in beagle dog hepatocytes
# Type: in vitro ADME
A number alone suffices; assume h.

query: For the compound shown here, COC(=O)N[C@H](C(=O)N[C@@H](Cc1ccccc1)[C@@H](O)CN(Cc1ccc(-c2ccccn2)cc1)NC(=O)[C@@H](NC(=O)OC)C(C)(C)C)C(C)(C)C [Atazanavir, reference compound] , give the reported half-life at 0.1 μM.
result: 12.6

query: For the compound shown here, COCCOCCOCCOC(=O)NC(C(=O)NC(Cc1ccccc1)C(O)CN(Cc1ccc(-c2ccccn2)cc1)NC(=O)C(NC(=O)OC)C(C)(C)C)C(C)(C)C (centres unmarked) [mono-mPEG3-Atazanavir] , give the reported half-life at 0.1 μM.
result: 1.43

###

# Test system: beagle dog hepatocytes
# measurement-description: Metabolic stability in beagle dog hepatocytes
# Assay type: in vitro ADME
# condition-label: 0.1 uM
Catalogue of compounds with associated CLint ± SEM
A number alone suffices; assume μL/min/10^6 cells.

Example entries and their recorded answers appear below.
- compound: "COCCOCCOCCOc1ccc(C[C@H](NC(=O)O[C@H]2CO[C@H]3OCC[C@H]32)C(O)CN(CC(C)C)S(=O)(=O)c2ccc(N)cc2)cc1 (stereo partly shown) [mPEG3-O-Darunavir]"
  recorded-measurement: 15.5
- compound: "COCCOCCOCCOCCOCCOc1ccc(C[C@H](NC(=O)O[C@H]2CO[C@H]3OCC[C@H]32)C(O)CN(CC(C)C)S(=O)(=O)c2ccc(N)cc2)cc1 (stereo partly shown) [mPEG5-O-Darunavir]"
  recorded-measurement: 4.93

query: For the compound shown here, COCCOC(=O)NC(C(=O)NC(Cc1ccccc1)C(O)CN(Cc1ccc(-c2ccccn2)cc1)NC(=O)C(NC(=O)OC)C(C)(C)C)C(C)(C)C (stereo not shown) [mono-mPEG1-Atazanavir] , give the reported CLint ± SEM.
result: 31.1

query: For the compound shown here, COCCOCCOCCOCCOCCOCCOC(=O)NC(C(=O)NC(Cc1ccccc1)C(O)CN(Cc1ccc(-c2ccccn2)cc1)NC(=O)C(NC(=O)OC)C(C)(C)C)C(C)(C)C (stereo not shown) [mono-mPEG6-Atazanavir] , give the reported CLint ± SEM.
result: 0.209

###

# Tested on: human hepatocytes
# measurement-description: Metabolic stability in cryopreserved human hepatocytes
# condition-label: human hepatocytes, 0.1 uM, up to four hours
Kind request: treat 6 h as inclusive, so t1/2 at 6 h or higher is Yes, anything lower is No.

As a guide, the following entries are already answered.
- compound: "COCCOC(=O)NC(C(=O)NC(Cc1ccccc1)C(O)CN(Cc1ccc(-c2ccccn2)cc1)NC(=O)C(NC(=O)OC)C(C)(C)C)C(C)(C)C (centres unmarked) [mono-mPEG1-Atazanavir]"
  assigned-category: "No"
- compound: "COCCOCCOCCNc1ccc(S(=O)(=O)N(CC(C)C)CC(O)[C@H](Cc2ccccc2)NC(=O)O[C@H]2CO[C@H]3OCC[C@H]32)cc1 (some centres unmarked) [mPEG3-N-Darunavir]"
  assigned-category: "No"

query: Is t1/2 at least 6 h? Consider COCCOCCOCCOCCOCCOCCOC(=O)NC(C(=O)NC(Cc1ccccc1)C(O)CN(Cc1ccc(-c2ccccn2)cc1)NC(=O)C(NC(=O)OC)C(C)(C)C)C(C)(C)C (centres unmarked) [mono-mPEG6-Atazanavir]
result: Yes

query: Is t1/2 at least 6 h? Consider COCCOCCOCCOCCOCCOC(=O)NC(C(=O)NC(Cc1ccccc1)C(O)CN(Cc1ccc(-c2ccccn2)cc1)NC(=O)C(NC(=O)OC)C(C)(C)C)C(C)(C)C (centres unmarked) [mono-mPEG5-Atazanavir]
result: No

###

# System: CEM-SS cells
# measurement-description: CEM-SS cytotoxicity (XTT)
# condition-label: 7 days
metric: XTT (CEM-SS) TC50

- molecule: "COC(=O)N[C@H](C(=O)N[C@@H](Cc1ccccc1)[C@@H](O)CN(Cc1ccc(-c2ccccn2)cc1)NC(=O)[C@@H](NC(=O)OC)C(C)(C)C)C(C)(C)C [Atazanavir, reference compound]"
  XTT (CEM-SS) TC50: "302.1 µM"
- molecule: "COCCOCCOCCOc1ccc(C[C@H](NC(=O)O[C@H]2CO[C@H]3OCC[C@H]32)C(O)CN(CC(C)C)S(=O)(=O)c2ccc(N)cc2)cc1 (some centres unmarked) [mPEG3-O-Darunavir]"
  XTT (CEM-SS) TC50: ">400 µM"
- molecule: "COCCOCCOCCOCCOCCOc1ccc(C[C@H](NC(=O)O[C@H]2CO[C@H]3OCC[C@H]32)C(O)CN(CC(C)C)S(=O)(=O)c2ccc(N)cc2)cc1 (some centres unmarked) [mPEG5-O-Darunavir]"
  XTT (CEM-SS) TC50: ">400 µM"
- molecule: "COCCOCCOCCOC(=O)NC(C(=O)NC(Cc1ccccc1)C(O)CN(Cc1ccc(-c2ccccn2)cc1)NC(=O)C(NC(=O)OC)C(C)(C)C)C(C)(C)C (centres unmarked) [mono-mPEG3-Atazanavir]"
  XTT (CEM-SS) TC50: ">400 µM"

Could you now consider this next molecule?
query: Please state recorded XTT (CEM-SS) TC50 (tested on CEM-SS cells) of CC(C)CN(C[C@@H](O)[C@H](Cc1ccccc1)NC(=O)O[C@H]1CO[C@H]2OCC[C@H]21)S(=O)(=O)c1ccc(N)cc1 [Darunavir, reference compound]
result: 338.6 µM
